Test system: ENR+CD organoids
Assay: Primary screen: ATP (CellTiter-Glo 3D, CTG) cell number/viability, 2.5-D 384-well ENR+CD organoids;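 further: compounds given at plating and again on day 3 over a 6-day differentiation from ENR+CV stem-cell-enriched precursors, ATP measured on day 6, plate median as control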
Details: primary screen, dose 0.40 uM
readout name: Dose.FC.CTG (log2 fold change)
The answer is to be given in log2 fold change; state only the numeric part.

Worked examples follow.
                                   compound  readout_name  measured_result
0      O=C(O)c1cccc(-c2noc(-c3ccccc3F)n2)c1   Dose.FC.CTG           −0.340
1  CC(C)C[C@@H](C(=O)N[C@H](C(=O)OC1CCCC1)c1ccccc1)[C@H](O)C(=O)NO   Dose.FC.CTG            0.051
2  COc1cc2c(cc1O)CC[C@@H]1[C@@H]2CC[C@]2(C)[C@@H](O)CC[C@@H]12   Dose.FC.CTG            0.401

Proceed to the following item.
# get_value(readout='Dose.FC.CTG', item= "O=C(N/N=C/c1ccc(O)c(O)c1)c1cc2ccccc2cc1O" )
−0.253

Source listed as patent US20220323406A1.
